experimental.target: HLA-A2
assay.remarks: REVEAL MHC-peptide binding
# label = class 1 if % of positive control < 10% else class 0

substance	category
EL[Nle]GYIPLI (peptide)	class 0
[Cit]IGVRAT[Cit]R (peptide)	class 1
GP[Cit]IGVRAT (peptide)	class 1
P[Cit]IGVRAT[Cit] (peptide)	class 1
[Nle]GYIPLIGA (peptide)	class 0
L[Nle]GYIPLIG (peptide)	class 0

* * *

experimental.target: HLA-B7
assay.remarks: REVEAL MHC-peptide binding
Cut-off 0.9% on % of positive control, inclusive. At or above means 1; below means 0.

substance	experimental.target	category
[Cit]IGVRAT[Cit]R (peptide)	HLA-B7	1
[Nle]GYIPLIGA (peptide)	HLA-B7	1
GP[Cit]IGVRAT (peptide)	HLA-B7	1
P[Cit]IGVRAT[Cit] (peptide)	HLA-B7	1
EL[Nle]GYIPLI (peptide)	HLA-B7	0
